The reported numbers originate from patent US20110118447A1.

biological target: binding partner of C5A (XPA23); assay: Biacore
Please provide measured fold difference in affinity vs original for the entries that follow.
# value in fold; strip the unit string

GET /values?readout=fold difference in affinity vs original&item= C5A (XPA23) VH G100T (antibody, V domains shown) VH: EVQLLESGGGLVQPGGSLRLSCAASGFTFSKYFMFWVRQAPGKGLEWVSVISPSGGMTRYADSVKGRFTISRDNSKNTLYLQMNSLRAEDTAVYYCARVTYGGNSDYWGQGTLVTVSS VL: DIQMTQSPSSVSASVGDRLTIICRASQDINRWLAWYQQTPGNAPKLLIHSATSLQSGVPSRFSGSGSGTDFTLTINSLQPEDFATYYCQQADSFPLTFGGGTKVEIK
0.12

For C5A (XPA23) VH M57A (antibody, V domains shown) VH: EVQLLESGGGLVQPGGSLRLSCAASGFTFSKYFMFWVRQAPGKGLEWVSVISPSGGATRYADSVKGRFTISRDNSKNTLYLQMNSLRAEDTAVYYCARVGYGGNSDYWGQGTLVTVSS VL: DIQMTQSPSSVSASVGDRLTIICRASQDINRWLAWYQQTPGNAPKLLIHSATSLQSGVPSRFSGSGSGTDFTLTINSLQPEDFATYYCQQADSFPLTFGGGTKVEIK then?
0.03

For C5A (XPA23) VH T58L (antibody, V domains shown) VH: EVQLLESGGGLVQPGGSLRLSCAASGFTFSKYFMFWVRQAPGKGLEWVSVISPSGGMLRYADSVKGRFTISRDNSKNTLYLQMNSLRAEDTAVYYCARVGYGGNSDYWGQGTLVTVSS VL: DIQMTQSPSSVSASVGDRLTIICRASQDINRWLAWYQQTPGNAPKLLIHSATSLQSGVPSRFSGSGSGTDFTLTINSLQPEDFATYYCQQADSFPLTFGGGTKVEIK then?
0.95
